In this section we review reported EC50 values for a set of molecules.
Test system: Human rhinovirus sp.
Assay: Effective concentration against HRV-14
Assay type: functional, organism-based
attribute_measured: EC50 (µg/mL)

In [3]: df
Out[3]:
                               sample_smiles  attribute_measured  readout_qualifier  test_result
 0  CCSc1nc2ccc(OCCC3CCN(c4ccc(C)nn4)CC3)cc2s1                EC50                  =        0.049
 1  CCSc1nc2ccc(OCCC3CCN(c4ccc(C)nn4)CC3)cc2n1C                EC50                  >         0.25
 2  Cc1ccc(N2CCC(CCOc3ccc4nc(C)oc4c3)CC2)nn1                EC50                  >          0.5
 3  CCOc1nc2ccc(OCCC3CCN(c4ccc(C)nn4)CC3)cc2s1                EC50                  =        0.014
 4  CCCOc1nc2ccc(OCCC3CCN(c4ccc(C)nn4)CC3)cc2s1                EC50                  =        0.041
 5  CCCOc1nc2cc(OCCC3CCN(c4ccc(C)nn4)CC3)ccc2o1                EC50                  =         0.02
 6  CCSc1nc2cc(OCCC3CCN(c4ccc(C)nn4)CC3)ccc2n1C                EC50                  =        0.169
 7  CCOc1nc2cc(OCCC3CCN(c4ccc(C)nn4)CC3)ccc2o1                EC50                  =        0.007
 8  COc1nc2cc(OCCC3CCN(c4ccc(C)nn4)CC3)ccc2o1                EC50                  =        0.099
 9  CCCc1nc2cc(OCCC3CCN(c4ccc(C)nn4)CC3)ccc2o1                EC50                  =        0.028
10  CCCCc1nc2cc(OCCC3CCN(c4ccc(C)nn4)CC3)ccc2o1                EC50                  =        0.082
